# Test system: Escherichia coli
# Method Summary: In vitro antimicrobial activity against Escherichia coli DC 0
# Type: functional
In this section, each of the molecules is paired with its reported log10 MIC.
Measurement Type: log10 MIC (log10 of the value in µg/mL)

In [3]: df
Out[3]:
                                    molecule  measured_value
 0  CO/N=C(/C(=O)NC1C(=O)N2C(C(=O)[O-])=C(C[n+]3cccc4c3CCC4)CSC12)c1csc(N)n1 (stereo not drawn)           -1.89
 1  CO/N=C(/C(=O)N[C@@H]1C(=O)N2C(C(=O)[O-])=C(C[n+]3cccc(-c4cc(N)n(C)n4)c3)CS[C@H]12)c1csc(N)n1           -1.60
 2  CO/N=C(/C(=O)N[C@@H]1C(=O)N2C(C(=O)[O-])=C(C[n+]3cccc(-c4cc(CO)nn4CCO)c3)CS[C@H]12)c1csc(N)n1           -0.71
 3  CO/N=C(/C(=O)N[C@@H]1C(=O)N2C(C(=O)[O-])=C(C[n+]3cccc(-c4cc(C)[nH]n4)c3)CS[C@H]12)c1csc(N)n1           -1.60
 4  CO/N=C(/C(=O)N[C@@H]1C(=O)N2C(C(=O)[O-])=C(C[n+]3cccc(-c4cc(CO)nn4C)c3)CS[C@H]12)c1csc(N)n1           -1.31
 5  CC(C)(O/N=C(\C(=O)N[C@@H]1C(=O)N2C(C(=O)[O-])=C(C[n+]3ccccc3)CS[C@H]12)c1csc(N)n1)C(=O)O           -1.01
 6  CO/N=C(/C(=O)N[C@@H]1C(=O)N2C(C(=O)[O-])=C(C[n+]3cccc(-c4cc(C(N)=O)nn4CCO)c3)CS[C@H]12)c1csc(N)n1           -1.01
 7  CO/N=C(/C(=O)N[C@@H]1C(=O)N2C(C(=O)[O-])=C(C[n+]3cccc(-c4cc(CO)[nH]n4)c3)CS[C@H]12)c1csc(N)n1           -1.31
 8  CO/N=C(/C(=O)N[C@@H]1C(=O)N2C(C(=O)[O-])=C(C[n+]3cccc(-c4cc(C(N)=O)nn4C)c3)CS[C@H]12)c1csc(N)n1           -1.31
 9  CO/N=C(/C(=O)N[C@@H]1C(=O)N2C(C(=O)[O-])=C(C[n+]3cccc(-c4cc(N)n(CCO)n4)c3)CS[C@H]12)c1csc(N)n1           -1.60
10  CO/N=C(/C(=O)N[C@@H]1C(=O)N2C(C(=O)[O-])=C(C[n+]3cccc(-c4cc[nH]n4)c3)CS[C@H]12)c1csc(N)n1           -1.01
11  CO/N=C(/C(=O)N[C@@H]1C(=O)N2C(C(=O)[O-])=C(C[n+]3cccc(-c4cc(C(N)=O)[nH]n4)c3)CS[C@H]12)c1csc(N)n1           -1.60
12  CO/N=C(/C(=O)N[C@@H]1C(=O)N2C(C(=O)[O-])=C(C[n+]3cccc(-c4cc(N)[nH]n4)c3)CS[C@H]12)c1csc(N)n1           -1.60
